B1: library; numbered along this chain (parent)
chain: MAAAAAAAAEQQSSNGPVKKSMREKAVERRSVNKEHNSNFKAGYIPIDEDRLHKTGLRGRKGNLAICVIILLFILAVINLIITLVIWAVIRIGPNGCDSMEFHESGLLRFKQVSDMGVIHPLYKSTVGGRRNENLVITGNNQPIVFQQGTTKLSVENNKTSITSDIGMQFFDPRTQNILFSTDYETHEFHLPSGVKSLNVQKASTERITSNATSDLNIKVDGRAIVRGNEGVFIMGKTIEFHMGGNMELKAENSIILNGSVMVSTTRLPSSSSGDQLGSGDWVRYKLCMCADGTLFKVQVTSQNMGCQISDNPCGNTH

# Variants of: B1
# assay_notes: SGCB cell-surface expression functional score (HA stain, bin4 vs bin1, normalised to synonymous) (log10 ratio); higher = more cell-surface SGCB (functional)
measured_metric: SGCB cell-surface expression functional score (log10)
Give bare numbers.

Solved cases below.
Look up SGCB cell-surface expression functional score (log10) for this variant: T317K 0.5

// SGCB cell-surface expression functional score (log10) lookup, key: K19D 0.06

Look at this variant and give its reported SGCB cell-surface expression functional score (log10). C67Y 0.04

Reported SGCB cell-surface expression functional score (log10), variant E248M : ____ 0

Item under review: G222Y . Reported SGCB cell-surface expression functional score (log10)? 0.21

// each listed variant needs a value for SGCB cell-surface expression functional score (log10)
1. W282M
2. I92A
3. K34H
4. H103G
5. I166P
6. G274P

-0.29
-1.94
0.6
0.07
-1.11
-0.32

Could you report SGCB cell-surface expression functional score (log10) for every entry in the following list?
1. M243V
2. K111Q
3. G43T
4. A42W
5. G16D

1: 0.49; 2: -1; 3: 0.05; 4: 0.29; 5: 0.57
